Data origin, for the record: ChEMBL document CHEMBL1140703

Exercise: for every item that follows, state its recorded IC50.
assay: Inhibition of Toxoplasma gondii thymidylate synthase
Give bare numbers, in µM.

[[record]]
chemical_string = "Cc1cc2nc(N)[nH]c(=O)c2n1Cc1ccc(F)cc1"
reading = 22


For each of the items listed, what is its IC50?
1. Cc1cc2nc(N)[nH]c(=O)c2n1Cc1ccc(Cl)cc1
2. Cc1cc2nc(N)[nH]c(=O)c2n1Cc1ccc(Cl)c(Cl)c1
3. Cc1cc2nc(N)[nH]c(=O)c2n1Cc1ccc(C(=O)N[C@@H](CCC(=O)O)C(=O)O)cc1

// result
17
27
0.23

---

target: UniProtKB P00374
Sequence (P00374 whole entry): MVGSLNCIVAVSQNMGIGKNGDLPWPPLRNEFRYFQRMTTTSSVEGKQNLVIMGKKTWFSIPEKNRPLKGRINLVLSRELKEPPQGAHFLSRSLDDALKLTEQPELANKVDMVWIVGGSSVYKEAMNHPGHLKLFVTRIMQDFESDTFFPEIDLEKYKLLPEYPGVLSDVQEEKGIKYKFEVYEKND
pIC50: −log10 of the molar value.
Exercise: for every item that follows, state its recorded pIC50.

Previously resolved entries follow.
[[record]]
chemical_string = "Cc1cc2nc(N)[nH]c(=O)c2n1Cc1ccccc1"
reading = "< 4.41"

[[record]]
chemical_string = "Cc1cc2nc(N)[nH]c(=O)c2n1Cc1cc(Cl)cc(Cl)c1"
reading = "< 4.51"


Pending compound:
// query What value of pIC50 has been reported for the following compound? Cc1cc2nc(N)[nH]c(=O)c2n1Cc1ccc(OC(F)(F)F)cc1
// result < 4.46
